Test system: ATP;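 further: ATP exposure 15 min at 22 °C before imaging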
Assay: switch fluorescence ratio, 500 uM ATP over buffer (Cy3 cluster intensity, sum of 5 cycles each) (fold (ratio)); higher = stronger signal-on switching upon ATP binding; sequences stand for … in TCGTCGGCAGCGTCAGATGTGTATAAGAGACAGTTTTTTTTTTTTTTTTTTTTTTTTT…TC
Conditions: aptamer strand: ATP DNA aptamer (quencher-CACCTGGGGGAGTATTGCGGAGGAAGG + anchor), 100 nM annealed; ATP concentration: 500 uM
Mark no for switch fluorescence ratio values under 1, and yes for everything at or above.

// below: answered sequences
GAGGGGCACG :: no
AAAACATGGA :: no

Determine whether measured switch fluorescence ratio meets or exceeds 1 for `CTGGTATTTG`
yes

Determine whether measured switch fluorescence ratio meets or exceeds 1 for `TTTAAACGGT`
yes

Determine whether measured switch fluorescence ratio meets or exceeds 1 for `TGCAGCTTGC`
yes

Determine whether measured switch fluorescence ratio meets or exceeds 1 for `ACATCCGGAC`
yes

Determine whether measured switch fluorescence ratio meets or exceeds 1 for `TGAAGTATGA`
yes

Determine whether measured switch fluorescence ratio meets or exceeds 1 for `TTTGAGTCCG`
yes

Determine whether measured switch fluorescence ratio meets or exceeds 1 for `ACAGGCTCCG`
yes

----------
System: ATP;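 further: ATP exposure 15 min at 22 °C before imaging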
Test: switch fluorescence ratio, 500 uM ATP over buffer (Cy3 cluster intensity, sum of 5 cycles each) (fold (ratio)); higher = stronger signal-on switching upon ATP binding; sequences stand for … in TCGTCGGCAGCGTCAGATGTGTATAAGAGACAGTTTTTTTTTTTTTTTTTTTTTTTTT…TC
Conditions: aptamer strand: ATP DNA aptamer (quencher-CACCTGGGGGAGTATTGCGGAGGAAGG + anchor), 100 nM annealed; ATP concentration: 500 uM
valueKind: switch fluorescence ratio
No unit in the answer, only the number.

TTAAGCGAGC :: 0.966
AGCTGGCCCT :: 1
GTTAGAGTTT :: 0.988
TGGGTATAAC :: 1
AGAGGTCCGA :: 0.991

Please give the documented switch fluorescence ratio of `CATTGGGGGA`
0.983

Please give the documented switch fluorescence ratio of `AGGCACGCGC`
1.01

Please give the documented switch fluorescence ratio of `CTGAACTTTA`
1.04

Please give the documented switch fluorescence ratio of `TGAAAGATGT`
1.01

Please give the documented switch fluorescence ratio of `GTTTATTTTT`
0.997

Please give the documented switch fluorescence ratio of `CGTTCGGGGT`
0.981

Please give the documented switch fluorescence ratio of `CATGTGGGGG`
0.985

Please give the documented switch fluorescence ratio of `TACCGCTTGC`
2.01

Please give the documented switch fluorescence ratio of `GAATGTAGGG`
0.967

Please give the documented switch fluorescence ratio of `TGAGATACGA`
1.01

Please give the documented switch fluorescence ratio of `AGCGTTTTTT`
0.998

Please give the documented switch fluorescence ratio of `CGGTTGCGGA`
0.995

Please give the documented switch fluorescence ratio of `TTGAGGTACG`
1.03

Please give the documented switch fluorescence ratio of `AAAAGGTGCG`
0.993

Please give the documented switch fluorescence ratio of `TGTTAGGGAT`
1.01

Please give the documented switch fluorescence ratio of `GGGGGGTGCA`
1.02

Please give the documented switch fluorescence ratio of `GATGAAAGGC`
1.05

Please give the documented switch fluorescence ratio of `GCGCCGGAG`
1

Please give the documented switch fluorescence ratio of `AATAGTTACT`
1.02

Please give the documented switch fluorescence ratio of `AAGGGGGCGT`
1

Please give the documented switch fluorescence ratio of `CTTTAGATGT`
0.98

Please give the documented switch fluorescence ratio of `TTTAAGGTTT`
0.998
